Would you kindly list pKd for each of these binders?
biological target: T1, hVISTA-COMP-his, pentameric form comprising the extracellular IgV domain of human VISTA (human, UniProt Q9H7M9 33-194); assay: SPR (BIAcore T200), single-cycle kinetics; hVISTA-COMP-his captured on anti-His chip, mAb as analyte; 1:1 Langmuir fit
T1 construct: domain: extracellular IgV domain; not shown: his tag
T1 sequence (Q9H7M9 33-194): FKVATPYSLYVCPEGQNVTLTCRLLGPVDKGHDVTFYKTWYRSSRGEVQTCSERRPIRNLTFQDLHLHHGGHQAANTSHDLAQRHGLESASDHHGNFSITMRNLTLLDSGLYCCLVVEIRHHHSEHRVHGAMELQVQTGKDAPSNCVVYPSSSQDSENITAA
pKd is a log-scale quantity: -log10 of the concentration expressed in molar.

(Q) Which pKd value is on record for murine anti-hVISTA mAb 8G10 (antibody, V domains shown, Variable regions only, although headed 'Heavy Chain' and 'Light Chain'; Mouse IgG1 from hybridoma) VH: QVQLQQSGAELVRPGASVTLSCKASGYTFTDYEMHWVKQTPVHGLEWIGAIDPETGGTAYNQKFKGKATLTADKSSSTAYMELRSLTSEDSAVYYCTRWSLRPYAMDYWGQGTSVTVSS VL: DVVMTHTPLSLPVSLGDQASISCRSSQSLVHNNGNTYLHWYLQKPGQSPKLLIYKVSNRFSGVPDRFSGSGSGTDFTLKISRVEAEDLGLYFCSQSTHVPWTFGGGTKLEIK ?
(A) 9.01

(Q) Query (binder): murine anti-hVISTA mAb 7E12 (antibody, V domains shown, Mouse IgG1 purified from hybridoma) VH: DVHLQESGPGLVKPSQSLSLTCSVTGYSITSGYYWNWIRQFPGNKLEWMGYISYDGNNNYNPSLKNRISITRDTSKNQFFLKLNSVTTEDTATYYCARGDYGSEAMDYWGQGTSVTVSS VL: DIRVTQSPASLAVSLGQRATISCRASKSVSTSGYSYMNWYQQKPGQPPQLLIYLASNLESGVPARFSGSGSGTDFTLNIHPVEEEDAAIYYCQHSRELPWTFGGGTKLEIK ; field requested: pKd
(A) 9.36

(Q) // pKd lookup, key: murine anti-hVISTA mAb 7G5 (antibody, V domains shown, Variable regions only, although headed 'Heavy Chain' and 'Light Chain'; Mouse IgG1 from hybridoma) VH: QIQLVQSGPELKKPGETVKISCKASGYTFTNYGMNWVKQAPEKGLKWMGWINTYTGEPTYADDFKGRFAFSLETSASTAYLQINNLKNEDTATYFCARRSNPWPNDYWGQGTSLTVSS VL: DIQMTQSPSSFSASLGERVSLTCRASQEISGYLSWLQQKPDGTIKRLIYAASTLDSGVPKRFSGSRSGSDYSLTISSLESEDFADYYCLQYASYPWTFGGGTKLEIK
(A) 9.85

(Q) Value lookup for pKd; key = rat anti-hmVISTA mAb 7C7 (antibody, V domains shown, Variable regions only; Rat IgG2a from hybridoma) VH: EVQLVESGGGLVQPGRSLKLSCVASGFTFNKYWMSWTRQAPGKGLEWVASITNSGGNTYYPDSVKGRFTISRDNAQNTLYLQMNSLRSEDTATYYCTLGVDYWGQGAMVTVSS VL: DVVMTQTPPSLSVTIGQSVSISCKSSQSLVYSDGKTYLHWLLQSSGRSPKRLIYQVSNLASGVPDRFSGTGSQKDFTLKISRVEAKDLGVYYCAQTTHFPYTFGAGTKLEMK
(A) 7.31
